- System: OVCAR-8
- EXPERIMENTAL DETAILS: Growth inhibition of human OVCAR8 cells at 10 uM after 48 hrs by SRB assay
- Type: functional
- CONDITION NOTES: OVCAR-8, 48 h, read-out: GI
ENDPOINT: inhibition of growth at 10 µM

Study these solved cases before continuing.
1) CCCCNc1ccc2c3c1cccc3c(=O)n1c3ccccc3nc21 ... < 20%
2) O=c1c2cccc3c(Nc4c(F)cccc4F)ccc(c32)c2nc3ccccc3n12 ... < 20%
3) O=c1c2cccc3c(NCCO)ccc(c32)c2nc3ccccc3n12 ... < 20%
4) O=c1c2cccc3c(Nc4ccc(Br)cn4)ccc(c32)c2nc3ccccc3n12 ... < 20%

Hi team, please reply with inhibition of growth at 10 µM for each item in this list.
1. O=c1c2cccc3c(NC4CCCCC4)ccc(c32)c2nc3ccccc3n12
2. O=c1c2cccc3c(N4CCCC4)ccc(c32)c2nc3ccccc3n12
3. O=c1c2cccc3c(N4CCOCC4)ccc(c32)c2nc3ccccc3n12

Result block:
1. < 20%
2. 34%
3. < 20%

Hi team, please reply with inhibition of growth at 10 µM for each item in this list.
1. Nc1ccc(Sc2ccc3c4c2cccc4c(=O)n2c4ccccc4nc32)cc1
2. O=c1c2cccc3c(Nc4ccccn4)ccc(c32)c2nc3ccccc3n12

Result block:
1: 50%; 2: 24.6%
